# assayed system: HSV-1 TK (Human herpesvirus 1, UniProt P0DTH5)
# Construct: HSV thymidine kinase (HSV TK) was isolated from HELA (BU25) cells infected with the SW148 strain of HSV-1
# Sequence (P0DTH5 whole entry): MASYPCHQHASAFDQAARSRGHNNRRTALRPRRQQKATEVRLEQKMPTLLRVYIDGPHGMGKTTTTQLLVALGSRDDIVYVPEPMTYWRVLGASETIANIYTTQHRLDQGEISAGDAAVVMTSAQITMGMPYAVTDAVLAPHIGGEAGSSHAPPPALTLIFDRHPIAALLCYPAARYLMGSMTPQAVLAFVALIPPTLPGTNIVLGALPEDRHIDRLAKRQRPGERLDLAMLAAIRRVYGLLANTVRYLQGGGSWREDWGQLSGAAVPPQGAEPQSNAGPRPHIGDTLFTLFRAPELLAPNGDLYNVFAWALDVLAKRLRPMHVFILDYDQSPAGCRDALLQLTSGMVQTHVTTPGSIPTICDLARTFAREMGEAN
# method: Competitive inhibition of [3H]-thymidine phosphorylation by partially purified HSV-1 TK
measured property: Ki
Please answer using a numeric value trailed by its unit.

// worked examples, Ki included
1) Nc1nc2c(ncn2[C@H]2C[C@H](O)[C@@H](CO)O2)c(=O)[nH]1 [dGuo, reference compound] : 10.5 µM
2) Nc1nc2c(ncn2[C@@H]2C[C@H](CO)[C@@H](O)C2)c(=O)[nH]1 (racemic) [D,L-2'-CdG] : 3 µM
3) Nc1nc2c(ncn2[C@H]2C[C@@H](CO)[C@H](O)C2)c(=O)[nH]1 [L-2'-CdG] : 3.4 µM

# ---- query molecule ----
Lookup: API: value(readout=Ki, system=HSV-1 TK (Human herpesvirus 1, UniProt P0DTH5)) for record Nc1nc2c(ncn2[C@@H]2C[C@H](CO)[C@@H](O)C2)c(=O)[nH]1 [D-2'-CdG]
Found: 2.1 µM

Numbers sourced from patent EP0684822B1.
